- TESTED SYSTEM: T1, LIN7B, Q9HAP6
- T1 sequence (Q9HAP6 88-185, limits assumed, looked up): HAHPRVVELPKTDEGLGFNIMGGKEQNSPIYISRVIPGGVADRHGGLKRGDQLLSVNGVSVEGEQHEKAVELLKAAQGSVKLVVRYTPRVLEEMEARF
- METHOD NOTES: holdup assay
- Set-up: key: below the threshold = too weak to quantify, mostly under pKd 3.1 to 4
- TEST SETTINGS: plain residues with an end cap or a label only (N-terminal biotin on a linker: ado-ado)
OBSERVATION TYPE: pKd

TKEIPNCTSV [SORCS3, Q9UPU3]: below the threshold
SKQFDKNAYV [CLDN10, P78369]: below the threshold
EKPIDSETKM [SLC1A3, P43003]: below the threshold
